Entry source: patent US11135207B2

- System Tested: Des1 (Homo sapiens (Human), UniProt O15121)
- Sequence (O15121 whole entry): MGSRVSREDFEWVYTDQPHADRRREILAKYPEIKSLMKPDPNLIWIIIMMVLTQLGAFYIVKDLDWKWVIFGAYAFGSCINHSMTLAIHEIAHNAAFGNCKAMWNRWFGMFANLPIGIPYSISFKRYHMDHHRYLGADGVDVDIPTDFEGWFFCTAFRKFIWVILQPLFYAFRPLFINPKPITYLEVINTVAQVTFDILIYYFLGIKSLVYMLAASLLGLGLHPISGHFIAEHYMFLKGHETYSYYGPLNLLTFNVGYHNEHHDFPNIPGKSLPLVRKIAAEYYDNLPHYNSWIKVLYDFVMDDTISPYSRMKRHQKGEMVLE
- Test Summary: Jurkat T cell measurement of conversion of dihydroceramide to ceramide
- Format: cell-based
- Experimental Parameters: Jurkat clone E6-1 cells; read-out: half-maximal inhibitory concentration (IC50)
Assay Metric: IC50

Molecule	Assay Metric	Result
CC1=C(/C=C/C(C)=C/C=C/C(C)=C/C(=O)Nc2ccc(O)cc2)C(C)(C)CCC1 [fenretinide]	IC50	100 to 250 nM

====

- System Tested: Des1 (Homo sapiens (Human))
- Test Summary: Jurkat T cell measurement of conversion of dihydroceramide to ceramide
- Assay type: cell-based
- Experimental Parameters: Jurkat clone E6-1 cells, NBD-C6-dihydroceramide substrate; read-out: Des1 IC50
Listing of entries alongside the reported IC50.
Assay Metric: IC50 (nM)

Compound	Unit String	Sign Qualifier	Numeric Value
CCCCCCCC(=O)Nc1ccc(O)cn1 [Example 29, N-(5-hydroxy-pyridin-2-yl)-octanamide]	nM	=	6
O=C(Nc1ccc(O)cn1)C1CCCN(c2ccc(F)cc2)C1 (stereo not shown)	nM	=	250
CCc1ccc(C(=O)Nc2ccc(O)cn2)cc1	nM	=	130
O=C(Nc1ccc(O)cc1)[C@@H]1C[C@H]1c1ccccc1 (relative stereo)	nM	=	590
O=C(Nc1ccc(O)cc1)c1ccc(C2CCCCC2)cc1	nM	=	90
N#Cc1ccc(-c2ccc(C(=O)Nc3ccc(O)cn3)cc2)cc1	nM	=	5
O=C(CC1CCN(c2ccc(F)cc2)CC1)Nc1ccc(O)cn1	nM	=	13
O=C(Nc1ccc(O)cc1)c1ccc(-c2ccccc2)cc1	nM	=	50
O=C(CN1CCN(c2ccc(C(F)(F)F)cc2)CC1)Nc1ccc(O)cn1	nM	=	50
O=C(Nc1ccc(O)cn1)c1ccc(C2CCCCC2)cc1	nM	=	4
O=C(/C=C/c1ccccc1)Nc1ccc(O)cn1 [Example 8, N-(5-hydroxy-pyridin-2-yl)-cinnamide]	nM	=	60
CC(C)O[C@H]1CC[C@H](C(=O)Nc2ccc(O)cn2)CC1	nM	=	21
O=C(CN1CCN(c2ccc(F)cc2)CC1)Nc1ccc(O)cn1	nM	=	140
O=C(/C=C/c1ccccc1)Nc1ccc(O)cc1 [Example 4, N-(4-hydroxy-phenyl)-cinnamide]	nM	=	440
O=C(Nc1ccc(O)cn1)c1ccc(-c2ccccc2Cl)cc1	nM	=	19
O=C(Nc1ccc(O)cn1)[C@H]1CC[C@H](c2ccccc2)CC1	nM	=	5
CC(C)c1ccc(C(=O)Nc2ccc(O)cn2)cc1	nM	=	16
O=C(Nc1ccc(O)cc1)c1ccc2ccccc2c1 [Example 2, N-(4-hydroxy-phenyl)-2-naphthamide]	nM	=	840
O=C(Nc1ccc(O)cc1)c1ccc2[nH]ncc2c1	nM	>	10000
